# Tested on: SK-OV-3
# test_summary: NCI tumour cell line growth inhibition, 48 h
Counter-ions that a name gives are not always drawn. Activity calls are given as the source filed them. Cut-off read from the data, not from the text of the source: active = GI50 up to about 1.1 µM and inactive = higher.
Pick from class 1 (active), class 0 (inactive) when you respond.

The examples below pair each entry with its known result.
Hi, sorry to bother you, what did the test record for O=C1c2c[nH]nc2C(c2ccccc2)N1c1ccccc1 (stereo unspecified) ?
class 0

Record: COC(=O)C(N)CCCC(N)C(=O)NC(C)C(=O)NC(CCC(=O)NCCNCCNc1c2ccccc2nc2cccc([N+](=O)[O-])c12)C(N)=O (stereo unspecified)
class 0

Can you handle Clc1ccc2sc(-n3ccc4ccccc43)nc2c1 next?
class 0

Again, but for N#Cc1ccc(C(O)C(F)(F)c2nc3ccccc3o2)cc1 (stereo unspecified)
class 0

// repeat for CCN(C(=O)N[C@@H](CC(C)C)C(=O)NCC(=O)OC)c1ccccc1 and report
class 0

What would you report for O=C1/C(=C/c2ccc3c(c2)OCCO3)CCC/C1=C\c1ccc2c(c1)OCCO2 ?
class 0

Field entry: C#CC(O)/C=C/CCCCCCC#CC/C=C\CC#CCCCCCCCCC(O)C#C (stereo unspecified)
class 0

Another compound to look at: Cc1ccc(S(=O)(=O)NNC(=O)c2sc(-c3nc(C)c(C(=O)NNS(=O)(=O)c4ccc(C)cc4)s3)nc2C)cc1
class 0

New cases:
Which outcome was assigned to CCOC(=O)/C=C(/C(=O)OCC)n1ccc(=O)n(Cc2cnnn2COCCOC(C)=O)c1=O in this test?
class 0

Same lookup for COC(=O)C1=C(OC(=O)/C(=C/c2ccc(Cl)cc2)c2ccccc2)C(C(=O)OC)[C@@]2(O)[C@@H](C(=O)OC)[C@H](C)C[C@@H]1[C@@H]2C(=O)OC (stereo partly specified) , please.
class 0

Could you do the same for COC(=O)CNC(=O)CSc1nnc(COc2ccc(Cl)cc2)n1-c1ccccc1 , please?
class 0

Now this one: O=C1CNCCCN2CCN(CCCNCC(=O)Nc3ccc(cc3)S(=O)(=O)c3ccc(cc3)NC(=O)CNCCCN3CCN(CCCNCC(=O)Nc4ccc(cc4)S(=O)(=O)c4ccc(cc4)N1)CC3)CC2
class 0

Follow-up entry: COC(=O)c1ccc(Oc2nc3ccccc3nc2-c2cccs2)cc1
class 0

And the next one, Oc1ccc(C(O)C2CCCCN2)cc1O (stereo unspecified) [RIMITEROL HYDROBROMIDE] ?
class 0

Entry Cn1c2ccccc2n2c3ccccc3c(=S)c(C#N)c12 please
class 0

And CCC(C)C1=C(O)[N+]2([O-])Oc3ccc(-c4c(O)c(O)c(-c5ccc(OC(C)=O)cc5)c(OC(C)=O)c4OC(C)=O)cc3OC2(C(C)CC)C(=O)N1O (stereo unspecified) ?
class 0

----------
Provide the recorded GI50 for the entries that follow.
# System: SW-620
# test_summary: NCI tumour cell line growth inhibition, 48 h
Activity calls are given as the source filed them. No stated cut-off is given here; in the data, active = GI50 up to about 1.1 µM and inactive = higher.

Entry under review: Cc1ccc(C)c2c1C1CCCCC3(OCCCO3)C21O (stereo unspecified) . Reported GI50?
> 100 µM (inactive)

Hey, can you go through the list below and give me GI50 for every item?
1. CCCCC1NC=Nc2c1ccc1c2[nH]c2ccccc21 (stereo unspecified)
2. COC(=O)c1ccc2c(O)c(O)ccc2c1

["1.95 µM (inactive)", "12.1 µM (inactive)"]

For each of the compounds below, note its GI50.
1. COC(=O)CC(C#N)(OP1(=O)OC(c2ccccc2)C(C)N1C)c1ccccc1 (stereo unspecified)
2. CN(Cc1cnc2nc(N)nc(N)c2n1)c1ccc(C(=O)NCS(=O)(=O)O)cc1
3. COC(=O)C(=O)C(C(=O)C(=O)Nc1ccc(Cl)cc1C)c1nc2ccc(C(=O)c3ccccc3)cc2nc1O (stereo unspecified)

["17.3 µM (inactive)", "78.5 µM (inactive)", "> 100 µM (inactive)"]
